System: HOP-62 complex spheroids with HUVEC/MSC, viability
PROTOCOL: Anticancer human tumor HOP-62 cell line growth inhibition [RAS];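 further: spheroids exposed to agents for seven days before readout; 100% = DMSO vehicle control viability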
CONDITIONS_USED: second compound 0.03 µM; first compound 3.16 µM; active compounds read low
MEASURED_ATTRIBUTE: viability, T/C (%)

# MOLECULE, MEASURED_TARGET, MEASURED_ATTRIBUTE, OUTPUT_UNIT, READOUT_VALUE
records = [
    ("Cc1nc(N2CCC3(CC2)COC(C)C3N)c(CO)nc1Sc1ccnc(N)c1Cl (configuration not stated) + CCn1c(-c2cccnc2C(C)OC)c2c3cc(ccc31)N1CCOC(CC(NC(=O)C(C(C)C)N(C)C(=O)C3(F)CCN(C(=O)C#CC(C)(C)N(C)C)CC3)C(=O)N3CCCC(N3)C(=O)OCC(C)(C)C2)C1", "HOP-62 complex spheroids with HUVEC/MSC, viability", "viability, T/C", "%", 20.1),
    ("CC(=O)OC12COC1CC(O)C1(C)C(=O)C(O)C3=C(C)C(OC(=O)C(O)C(NC(=O)OC(C)(C)C)c4ccccc4)CC(O)(C(OC(=O)c4ccccc4)C21)C3(C)C (configuration not stated) + CCn1c(-c2cc(N3CCN(C)CC3)cnc2C(C)OC)c2c3cc(ccc31)-c1csc(n1)CC(NC(=O)C1CC1C)C(=O)N1CCCC(N1)C(=O)OCC(C)(C)C2", "HOP-62 complex spheroids with HUVEC/MSC, viability", "viability, T/C", "%", 30.4),
]
